The values you see were collected from PubChem BioAssay (NCI).

# System: OVCAR-4 ovarian
# measurement-description: NCI-60 one-dose screen, 48 h (100 = growth as untreated, 0 = no growth, -100 = all killed)
# experimental-context: 10 µM unless noted
About 83,000 compounds went through this panel and 20% of them were active in at least one assay; those are over-represented in the sample as a whole.
endpoint: growth (%)

molecule	endpoint	units-label	observed-result
Cn1cc(-c2ccc3ncc(-c4ccc(CC(=O)Nc5cc(C(C)(C)C)no5)cc4)nc3c2)cn1	growth	%	31.9
CCOc1ccc2nc(C)cc(Nc3ccc(Br)cc3)c2c1	growth	%	82.2
CCC1=C[C@@H]2CN(C1)Cc1c([nH]c3ccccc13)[C@@](C(=O)OC)(c1cc3c(cc1OC)N(C)[C@H]1[C@@](O)(C(=O)OC)[C@H](OC(C)=O)[C@]4(CC)[C@@H]5C[C@@H]5CN5CC[C@]31[C@@H]54)C2	growth	%	14.6
CCOC(=O)c1sc(-c2ccc(OS(=O)(=O)c3ccc(Br)s3)c(C=O)c2)nc1C	growth	%	7.2
O=C(N/N=C/c1ccccc1Cl)C(=O)Nc1cccc(C(F)(F)F)c1	growth	%	101
CC(=O)n1cc(-c2c[nH]c3ccccc23)c(-c2ccc(Cl)cc2)n1	growth	%	62
COc1cc2nc(-c3cnc(N(C)C)nc3)nc(NC3CCN(Cc4ccccc4)CC3)c2cc1OC	growth	%	-93.5
O=C1/C(=C\c2ccc[nH]2)c2ccccc2N1c1ccccc1	growth	%	67.7
O=c1c2cc(F)cc(Cl)c2sc2c(Cl)nc3ccccc3c12	growth	%	98.7
Fc1ccc(Oc2ccc(Nc3ncnc4onc(-c5ccccc5)c34)cc2)cc1	growth	%	102
O=C(N=Nc1c(O)[nH]c2ccccc12)c1oc2ccccc2c1CN1CCN(c2ccccc2)CC1	growth	%	-79
CSc1nc2c(c(=O)[nH]1)N=C1c3ccccc3C(=O)C1C(c1ccccc1)N2 (stereo not drawn)	growth	%	72.6
Cc1ccc(Nc2nc(N)c3ccccc3n2)cc1Cl	growth	%	55.7
OC(c1ccccc1)c1nnc(SCc2ccccc2)n1Cc1ccccc1 (stereo not drawn)	growth	%	81.6
CCC1=C[C@]2(C3CC(=O)N(c4ccccc4)C3=O)CC(C(C)(C)C)C[C@@H]2[C@@H]2C(=O)N(c3ccccc3)C(=O)[C@H]12 (stereo partly drawn)	growth	%	89.4
O=C1NC(=O)C(=Cc2cn(Cc3cn(Cc4ccc(Cl)cc4Cl)nn3)c3ccccc23)C(=O)N1	growth	%	82.4
COc1c(B(O)O)cccc1-c1nc2ccc3n[nH]c(F)c3c2c2c1CCCC2	growth	%	96
O=C(N/N=C/c1ccccc1O)C(=O)Nc1ccc(F)cc1	growth	%	27.2
O=C1c2cc(Br)ccc2Oc2cc([N+](=O)[O-])ccc2N1c1ccc(I)cc1F	growth	%	94.5
Cc1ccc(F)cc1NC(=O)c1cc(Cl)ccc1Nc1ccccc1	growth	%	51.6
CCOC(=O)c1c2c(n3cccc(Cl)c13)C(=O)c1ncccc1C2=O	growth	%	23.5
O=C(Nc1ccc(Br)cc1F)c1cc(F)ccc1O	growth	%	12.4
Cc1ccc(Cc2cnc(NC(=O)CN3C(=O)/C(=C\c4ccccc4)SC3=S)s2)cc1	growth	%	99
CC[C@]1(O)C[C@@H]2CN(CCc3c([nH]c4ccccc34)[C@@](C(=O)OC)(c3cc4c(cc3OC)N(C)[C@H]3[C@@](O)(C(=O)OC)[C@H](OC(C)=O)[C@]5(CC)C=CCN6CC[C@]43[C@@H]65)C2)C1	growth	%	33.7
CN(CCc1ccccc1)C(=S)N(C(=O)c1ccc([N+](=O)[O-])cc1)c1ccc(Cl)cc1	growth	%	86.3
COc1cccc(C2=NN3C(C2)c2ccccc2OC3c2ccc(/C=C3\SC(=O)NC3=O)cc2)c1 (stereo not drawn)	growth	%	103
O=C(Cc1ccccc1)NC(c1ccc(Cl)cc1)c1c(O)ccc2ccccc12 (stereo not drawn)	growth	%	21.7
c1ccc2c(c1)oc1cc3sccc3nc12	growth	%	102
COc1ccc(-c2nnc(COc3ccc(C(=O)/C=C/c4ccco4)cc3)o2)cc1	growth	%	67.9
COC(=O)c1c2c(c(C)[n+]([O-])c1C)C(=O)C=C(NCc1ccccc1)C2=O	growth	%	-95
COc1cc2nc(NC3CCCC3)nc(NC3CCN(C(C)C)CC3)c2cc1OC	growth	%	69
O=C(Nc1ccc(N2CCNCC2)cc1)c1[nH]ncc1Nc1cc(C2CC2)ncn1	growth	%	62.3
COc1ccc(N2C(=O)CC(c3cc(OC)c(OC)c(OC)c3)C3C2=NC(=O)N3C)cc1 (stereo not drawn)	growth	%	105
O=C(c1ccccc1)N(CCc1ccc(Cl)cc1)C(=S)N(C(=O)c1ccccc1)c1ccccc1	growth	%	96.6
O=Cc1c(OCc2cnnn2CC(=O)Nc2ccc(Cl)cc2)ccc2ccccc12	growth	%	100
Nc1nonc1-n1nncc1-c1cccnc1	growth	%	98.8
COc1cc(/C=C2\CCC/C(=C\c3cc(CN4CCCCC4)c(O)c(OC)c3)C2=O)cc(CN2CCCCC2)c1O	growth	%	60.9
COc1cc(C2C(C#N)=C(N)OC3=C2C(=O)c2ccccc2C3=O)cc(OC)c1O (stereo not drawn)	growth	%	81.9
